- Species: Rattus norvegicus
- Protocol details: Inhibitory concentration on PRL release from rat pituitary cells
- Assay type: functional, cell-based
- Reported conditions: Pituitary gland cell
pIC50: −log10 of the molar value.
Parameter: pIC50

# annotated cases, reported pIC50 shown
[[record]]
compound = "CC(C)[C@@H]1NC(=O)[C@H](CCCCN)NC(=O)[C@@H](Cc2c[nH]c3ccccc23)NC(=O)[C@H](Cc2ccc(O)cc2)NC(=O)[C@@H](NC(=O)[C@H](N)Cc2ccc(N)cc2)CSSC[C@@H](C(=O)N[C@H](C(N)=O)[C@@H](C)O)NC1=O"
readout_value = 8.66

[[record]]
compound = "CC(C)[C@@H]1NC(=O)[C@H](CCCCN)NC(=O)[C@@H](Cc2c[nH]c3ccccc23)NC(=O)[C@H](Cc2ccc(O)cc2)NC(=O)[C@@H](NC(=O)[C@H](N)Cc2ccc(N)c(I)c2)CSSC[C@@H](C(=O)N[C@H](C(N)=O)[C@@H](C)O)NC1=O"
readout_value = 10.00

[[record]]
compound = "C[C@H](N)C(=O)NCC(=O)N[C@H]1CSSC[C@@H](C(=O)O)NC(=O)[C@H](CO)NC(=O)[C@H]([C@@H](C)O)NC(=O)[C@H](Cc2ccccc2)NC(=O)[C@H]([C@@H](C)O)NC(=O)[C@H](CCCCN)NC(=O)[C@H](Cc2c[nH]c3ccccc23)NC(=O)[C@H](Cc2ccccc2)NC(=O)[C@H](Cc2ccccc2)NC(=O)[C@H](CC(N)=O)NC(=O)[C@H](CCCCN)NC1=O [SOMATOSTATIN]"
readout_value = 9.70


(a) CC(C)[C@@H]1NC(=O)[C@H](CCCCN)NC(=O)[C@@H](Cc2c[nH]c3ccccc23)NC(=O)[C@H](Cc2ccc(O)cc2)NC(=O)[C@@H](NC(=O)[C@H](N)Cc2ccc(N)cc2)CSSC[C@@H](C(=O)N[C@@H](CC(=O)O)C(N)=O)NC1=O
(b) CC(C)[C@@H]1NC(=O)[C@H](CCCCN)NC(=O)[C@@H](Cc2c[nH]c3ccccc23)NC(=O)[C@H](Cc2ccc(O)c(I)c2)NC(=O)[C@@H](NC(=O)[C@H](N)Cc2ccc(N)c(I)c2)CSSC[C@@H](C(=O)N[C@H](C(N)=O)[C@@H](C)O)NC1=O
Task: Of a and b , whose reported pIC50 is numerically smaller? Your answer should be the label of the entry you select.
Result: a
(a: 7.59, b: 9.64)
